target-or-test-system: T1, mouse LAG-3 overexpressed on HEK293E cells (mouse, UniProt Q61790 24-521)
T1 construct: whole, on cells; also called HEK293E-mLAG3; mLAG3 (Mouse)
T1 sequence (looked up): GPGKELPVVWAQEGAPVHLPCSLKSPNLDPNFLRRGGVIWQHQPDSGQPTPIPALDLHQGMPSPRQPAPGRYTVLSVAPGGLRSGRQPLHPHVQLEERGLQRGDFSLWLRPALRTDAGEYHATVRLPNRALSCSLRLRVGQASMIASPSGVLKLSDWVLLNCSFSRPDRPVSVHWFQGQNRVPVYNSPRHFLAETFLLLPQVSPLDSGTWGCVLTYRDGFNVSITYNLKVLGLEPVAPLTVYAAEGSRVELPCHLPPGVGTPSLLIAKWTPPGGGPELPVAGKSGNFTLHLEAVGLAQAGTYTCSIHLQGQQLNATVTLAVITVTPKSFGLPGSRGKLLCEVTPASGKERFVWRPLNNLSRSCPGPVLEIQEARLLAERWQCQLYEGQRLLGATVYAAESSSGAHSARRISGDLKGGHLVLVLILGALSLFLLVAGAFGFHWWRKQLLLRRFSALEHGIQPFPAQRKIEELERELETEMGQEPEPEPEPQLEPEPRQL
run-description: flow cytometry, HEK293E cells overexpressing LAG-3, antibody 2 µg/ml
parameter-measured: binding result

>>> reported_measurement("LAG3-1E09_FR_1A10 (antibody, V domains shown, Tested as full IgG) VH: EVQLVESGGGLVKPGGSLRLSCAASGFSFSDHYMNWIRQAPGKGLEWVAYIDTSATYIYYADSVKGRFTISRDNAKNSLYLQMNSLRAEDTAVYYCARDNWGSLDYWGQGTLVTVSS VL: DIQMTQSPSSLSASVGDRVTITCQANQDISNYLNWYQQKPGKAPKLLIYDASNLETGVPSRFSGGGSGTDFTLTINNLQPEDFATYYCHHSYNTPITFGQGTRLEIK")
"binds"
>>> reported_measurement("LAG3-1E09_AM_2H06 (antibody, V domains shown, Tested as full IgG) VH: EVQLVESGGDLVKPGGSLRLSCAASGFTFSDHYMNWVRQAPGKGLEWVAYIDTIATYIYYADSVKGRFTISRDNAKNSLYLQMNSLRAEDTAVYYCARDNWGSLDYWGQGTLVTVSS VL: DIQMTQSPSSLSASVGDRVTITCQASQDISNYLNWYQQTPGKAPKLLIYDASNLETGVPSRFSGSGSGTDFTLTISSLQPEDFATYYCQQGYGTPYTYGQGTKLEIK")
"binds"
>>> reported_measurement("LAG3-1E09_FR_1G07 (antibody, V domains shown, Tested as full IgG) VH: EVQLVESGGGLVKPGGSLRLSCAASGFSFSDHYMNWVRQAPGKGLEWVAYIDTSATYIYYADSVKGRFTISRDNAKNSLYLQMNSLRAEDTAVYYCARDNWGSLDYWGQGTLVTVSS VL: DIQMTQSPSSLSASVGDRVTITCRASQGISTYLNWYQQKPGKAPKLLIYDASNLETGVPSRFSGSGSGTDFTLTISGLQPDDFALYYCQQSYTTPYSFGPGTKVEIK")
"binds"
